- Measurement Target: Sodium-dependent noradrenaline transporter (Homo sapiens)
- Sequence (P23975 whole entry): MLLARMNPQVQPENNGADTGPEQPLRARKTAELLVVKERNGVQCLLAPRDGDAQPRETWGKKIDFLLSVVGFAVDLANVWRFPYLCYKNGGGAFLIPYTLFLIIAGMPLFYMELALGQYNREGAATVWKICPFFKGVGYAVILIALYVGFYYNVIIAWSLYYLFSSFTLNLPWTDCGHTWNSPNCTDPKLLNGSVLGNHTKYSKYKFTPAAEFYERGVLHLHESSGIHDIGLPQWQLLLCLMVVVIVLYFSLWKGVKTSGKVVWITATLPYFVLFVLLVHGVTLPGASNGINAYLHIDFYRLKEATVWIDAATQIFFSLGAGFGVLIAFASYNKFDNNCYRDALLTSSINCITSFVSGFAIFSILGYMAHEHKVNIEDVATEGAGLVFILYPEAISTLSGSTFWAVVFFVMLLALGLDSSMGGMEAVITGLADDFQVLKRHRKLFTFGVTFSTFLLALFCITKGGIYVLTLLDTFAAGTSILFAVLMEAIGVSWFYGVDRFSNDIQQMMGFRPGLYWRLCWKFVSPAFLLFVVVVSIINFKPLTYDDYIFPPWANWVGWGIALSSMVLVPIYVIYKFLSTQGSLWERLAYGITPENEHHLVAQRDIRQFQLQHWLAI
- Procedure Details: Inhibition of [3H]norepinephrine reuptake at human NET expressed in HEK293 cells after 90 mins by scintillation counting
- Type: cell-based
Readout Name: pIC50
Please note pIC50 is a logarithmic value: minus log10 of concentration in mol/L. Answer with that number alone.

Request: Fill in: pIC50 of CCC[C@@H]1NC(C)(C)CO[C@@]1(O)c1cccc(Cl)c1 is ___
Result: 7.51

====

- Measurement Target: Acetylcholine receptor; alpha1/beta1/delta/gamma (Homo sapiens, UniProt P02708+P07510+P11230+Q07001)
- Sequence (P02708 whole entry): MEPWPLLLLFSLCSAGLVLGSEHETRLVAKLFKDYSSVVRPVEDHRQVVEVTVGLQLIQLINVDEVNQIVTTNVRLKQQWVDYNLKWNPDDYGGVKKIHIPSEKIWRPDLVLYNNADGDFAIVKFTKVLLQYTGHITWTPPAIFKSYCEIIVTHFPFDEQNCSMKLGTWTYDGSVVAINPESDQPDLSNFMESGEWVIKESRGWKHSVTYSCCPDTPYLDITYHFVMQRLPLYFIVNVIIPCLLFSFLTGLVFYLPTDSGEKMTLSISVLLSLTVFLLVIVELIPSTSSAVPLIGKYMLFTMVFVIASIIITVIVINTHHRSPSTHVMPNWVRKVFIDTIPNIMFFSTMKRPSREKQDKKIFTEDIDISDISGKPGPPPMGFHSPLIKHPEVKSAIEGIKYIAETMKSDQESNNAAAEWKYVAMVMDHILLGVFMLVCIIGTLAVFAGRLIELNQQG
- Sequence (P07510 whole entry): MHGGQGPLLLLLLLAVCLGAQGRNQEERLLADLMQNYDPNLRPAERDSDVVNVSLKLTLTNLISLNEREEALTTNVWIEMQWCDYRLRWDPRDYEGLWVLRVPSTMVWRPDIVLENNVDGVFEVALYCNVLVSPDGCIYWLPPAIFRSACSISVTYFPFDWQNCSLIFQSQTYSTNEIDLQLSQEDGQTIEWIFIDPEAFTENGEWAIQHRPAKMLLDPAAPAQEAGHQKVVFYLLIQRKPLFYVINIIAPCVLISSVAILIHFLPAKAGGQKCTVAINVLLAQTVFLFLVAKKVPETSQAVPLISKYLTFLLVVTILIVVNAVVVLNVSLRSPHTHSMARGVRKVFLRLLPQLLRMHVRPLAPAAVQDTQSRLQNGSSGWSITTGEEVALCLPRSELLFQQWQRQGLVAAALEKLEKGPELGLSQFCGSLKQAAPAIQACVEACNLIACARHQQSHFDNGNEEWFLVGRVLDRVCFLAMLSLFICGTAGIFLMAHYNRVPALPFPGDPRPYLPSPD
- Sequence (P11230 whole entry): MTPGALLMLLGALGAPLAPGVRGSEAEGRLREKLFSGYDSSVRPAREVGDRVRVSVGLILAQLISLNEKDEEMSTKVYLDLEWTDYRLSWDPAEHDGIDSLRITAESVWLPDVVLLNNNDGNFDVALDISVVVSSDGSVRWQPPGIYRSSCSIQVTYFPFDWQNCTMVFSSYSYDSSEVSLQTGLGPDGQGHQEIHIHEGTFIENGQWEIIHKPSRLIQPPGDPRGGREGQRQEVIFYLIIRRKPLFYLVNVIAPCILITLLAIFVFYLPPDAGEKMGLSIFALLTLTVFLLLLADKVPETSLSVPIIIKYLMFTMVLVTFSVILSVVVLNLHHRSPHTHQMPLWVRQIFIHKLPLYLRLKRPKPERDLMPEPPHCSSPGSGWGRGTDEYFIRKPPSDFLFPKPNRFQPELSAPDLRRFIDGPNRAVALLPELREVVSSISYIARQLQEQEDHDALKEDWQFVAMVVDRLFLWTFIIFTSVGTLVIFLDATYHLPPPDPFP
- Sequence (Q07001 whole entry): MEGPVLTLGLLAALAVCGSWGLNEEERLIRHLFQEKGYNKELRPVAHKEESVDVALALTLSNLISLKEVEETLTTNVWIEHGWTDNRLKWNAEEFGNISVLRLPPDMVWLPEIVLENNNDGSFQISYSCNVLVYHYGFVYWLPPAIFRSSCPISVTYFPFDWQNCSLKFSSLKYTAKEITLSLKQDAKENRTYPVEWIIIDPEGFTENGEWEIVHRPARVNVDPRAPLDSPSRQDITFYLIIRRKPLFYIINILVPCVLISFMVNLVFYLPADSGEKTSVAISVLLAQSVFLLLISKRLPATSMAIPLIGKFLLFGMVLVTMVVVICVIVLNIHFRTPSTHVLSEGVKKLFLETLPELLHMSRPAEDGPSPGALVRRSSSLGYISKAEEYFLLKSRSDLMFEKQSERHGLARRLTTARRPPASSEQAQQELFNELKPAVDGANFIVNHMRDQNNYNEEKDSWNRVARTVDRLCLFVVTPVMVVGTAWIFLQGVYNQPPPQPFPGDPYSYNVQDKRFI
- Procedure Details: Antagonist activity at alpha-1-beta-1-gamma-delta nicotinic receptor in human TE671 cells assessed as inhibition varbamylcholine-induced radiolabeled Rb+ influx at by liquid scintillation counting
Listed next: entries and their corresponding IC50.

Please review the entries below; each comes with its answer.
Compound	IC50
CCC[C@@H]1NC(C)(C)CO[C@@]1(O)c1cccc(Cl)c1	10 µM
C[C@@H]1NC(C)(C)CO[C@@]1(O)c1ccccc1	> 100 µM
CC1NC(C)(C)COC1(O)c1cccnc1 (racemic)	> 100 µM
C[C@@H]1NC(C)(C)CO[C@@]1(O)c1cccc(F)c1	> 100 µM

For the next question, use this compound.
Request: Consider the compound CC1NC(C)(C)COC1(O)c1ccccn1 (racemic) and give its measured IC50.
Result: > 100 µM

====

The entries below are paired with their reported pIC50.
- Measurement Target: Neuronal acetylcholine receptor; alpha4/beta4 (Homo sapiens, UniProt P30926+P43681)
- Sequence (P30926 whole entry): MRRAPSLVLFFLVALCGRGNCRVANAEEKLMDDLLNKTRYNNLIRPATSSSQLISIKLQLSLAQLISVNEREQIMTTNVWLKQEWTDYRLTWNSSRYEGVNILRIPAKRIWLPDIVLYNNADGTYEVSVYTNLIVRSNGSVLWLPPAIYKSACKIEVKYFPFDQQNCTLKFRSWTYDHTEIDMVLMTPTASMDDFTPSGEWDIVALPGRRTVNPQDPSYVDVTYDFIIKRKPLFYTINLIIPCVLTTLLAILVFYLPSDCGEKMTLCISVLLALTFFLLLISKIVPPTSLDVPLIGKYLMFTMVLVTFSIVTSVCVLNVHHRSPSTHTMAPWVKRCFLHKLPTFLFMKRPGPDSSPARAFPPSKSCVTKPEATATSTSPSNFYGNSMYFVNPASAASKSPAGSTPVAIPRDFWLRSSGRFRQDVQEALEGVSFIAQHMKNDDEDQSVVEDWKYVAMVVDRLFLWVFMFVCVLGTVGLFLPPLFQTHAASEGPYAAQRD
- Sequence (P43681 whole entry): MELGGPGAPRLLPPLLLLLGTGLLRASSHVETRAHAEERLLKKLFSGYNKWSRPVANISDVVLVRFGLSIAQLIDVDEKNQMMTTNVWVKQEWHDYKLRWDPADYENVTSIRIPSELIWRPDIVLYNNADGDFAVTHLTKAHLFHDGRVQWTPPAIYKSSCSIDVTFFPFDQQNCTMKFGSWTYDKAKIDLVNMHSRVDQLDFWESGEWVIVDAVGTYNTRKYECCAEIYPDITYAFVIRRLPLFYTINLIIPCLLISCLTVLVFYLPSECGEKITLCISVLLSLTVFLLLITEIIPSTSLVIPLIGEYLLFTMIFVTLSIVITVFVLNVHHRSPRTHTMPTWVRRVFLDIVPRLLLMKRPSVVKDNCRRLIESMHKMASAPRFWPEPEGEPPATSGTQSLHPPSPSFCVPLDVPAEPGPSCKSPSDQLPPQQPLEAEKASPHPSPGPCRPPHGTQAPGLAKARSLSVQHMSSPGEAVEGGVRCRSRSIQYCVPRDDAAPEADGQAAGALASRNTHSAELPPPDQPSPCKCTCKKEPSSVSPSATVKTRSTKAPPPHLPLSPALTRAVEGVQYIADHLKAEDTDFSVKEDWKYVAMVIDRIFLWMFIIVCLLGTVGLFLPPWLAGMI
- Procedure Details: Antagonist activity at alpha4beta4 nicotinic receptor in human SH-EP1 cells assessed as inhibition varbamylcholine-induced radiolabeled Rb+ influx at by liquid scintillation counting
pIC50: −log10 of the molar value.

Request: Which pIC50 reading was recorded for the compound CC1NC(C)(C)COC1(O)c1cccnc1 (racemic) ?
Result: < 4.00

====

- Measurement Target: Neuronal acetylcholine receptor; alpha4/beta4 (Homo sapiens, UniProt P30926+P43681)
- Procedure Details: Antagonist activity at alpha4beta4 nicotinic receptor in human SH-EP1 cells assessed as inhibition varbamylcholine-induced radiolabeled Rb+ influx at by liquid scintillation counting
The entries below are paired with their reported IC50.

Consider the worked cases shown below.
Compound	Measurement Target	IC50
CC1NC(C)(C)COC1(O)c1ccccn1 (racemic)	Neuronal acetylcholine receptor; alpha4/beta4 (Homo sapiens, UniProt P30926+P43681)	> 100 µM
C[C@@H]1NC(C)(C)CO[C@@]1(O)c1ccc(F)c(F)c1	Neuronal acetylcholine receptor; alpha4/beta4 (Homo sapiens, UniProt P30926+P43681)	> 100 µM
C[C@@H]1NC(C)(C)CO[C@@]1(O)c1cccc(F)c1	Neuronal acetylcholine receptor; alpha4/beta4 (Homo sapiens, UniProt P30926+P43681)	> 100 µM
C[C@@H]1NC(C)(C)CO[C@@]1(O)c1ccc(F)cc1	Neuronal acetylcholine receptor; alpha4/beta4 (Homo sapiens, UniProt P30926+P43681)	> 100 µM

Request: Form field: reported IC50 of CCC[C@@H]1NC(C)(C)CO[C@@]1(O)c1cccc(Cl)c1
Result: 18 µM

Request: And COc1cccc([C@]2(O)OCC(C)(C)N[C@H]2C)c1 ?
Result: > 100 µM
